FYI, the data here is from PubChem BioAssay (NCI).

Tested on: DU-145 prostate
Experiment: NCI-60 one-dose screen, 48 h (100 = growth as untreated, 0 = no growth, -100 = all killed)
Conditions: 10 µM
Compounds without any hit were thinned out: in the full panel of roughly 83,000, 20% have a hit.
What growth was measured for each of the following?
The response must be a number in % with no trailing unit.

Query string: # input compound: Cn1c(N)c(N=Cc2ccccc2)c(=O)n(C)c1=O ; wanted: its growth
Result string: 124

Query string: Consider the compound shown here: COc1ccc(-c2nc(NC(=O)CS(=O)(=O)c3ccc(F)cc3)sc2C)cc1 What is its recorded growth?
Result string: 79

Query string: GET /values?readout=growth&item= O=c1oc2cc(OS(=O)(=O)C3CC3)ccc2c2c1CCCCCC2
Result string: 91.4

###

Tested on: SNB-19 CNS
Assay: NCI-60 one-dose screen, 48 h (100 = growth as untreated, 0 = no growth, -100 = all killed)
Conditions: 10 µM
The panel holds about 83,000 compounds, 20% with a hit somewhere; the sample as a whole holds those more often.
Can you tell me growth for the items I'm about to list?
Express it in %; write the number only.

Query string: Entry c1ccc(CNc2nc(Nc3ccc(-c4nc5ccccc5[nH]4)cc3)c3cn[nH]c3n2)cc1 has what growth?
Result string: 36.3

Query string: // returns reported growth for input COc1ccc2oc(=O)cc(C(c3ccc[nH]3)c3ccc[nH]3)c2c1
Result string: 22.1

Query string: Sample COc1ccc(-c2csc(-c3cc(Cl)cc(Cl)c3Cl)n2)cc1 — what was its growth?
Result string: 103

Query string: # get_value(readout='growth', item= N#Cc1c(-c2ccccc2)nc(SCC(=O)N2CCOCC2)[nH]c1=O )
Result string: 111

Query string: Given O=C(N/N=c1/ccoc2cccnc12)N1CCN(c2ncccn2)CC1 , state its recorded growth.
Result string: 35

Query string: Given the compound COc1ccc(C2=Cc3ccc(OC(C)=O)cc3OC2)cc1 , what is its reported growth?
Result string: 98.8

Query string: Recorded growth of COC(=O)C1(C(=O)OC)C2C(=O)C3C(C21)C3(C(=O)OC(C)(C)C)C(=O)OC(C)(C)C (centres undefined) , please.
Result string: 110

Query string: I am curious: what growth value has been reported for C[N+]1=C(/C=C/c2ccc(I)cc2)C(C)(C)c2ccccc21 ?
Result string: 96.7

Query string: Name the recorded growth for CCOC(=O)c1cc(-c2ccccc2)nc(N)n1 .
Result string: 92

###

Tested on: NCI-H460 lung
Assay: NCI-60 one-dose screen, 48 h (100 = growth as untreated, 0 = no growth, -100 = all killed)
Conditions: 10 µM
This is part of a sample that, as a whole, favours compounds with a hit. Of some 83,000 tested, about 20% had one in any assay.
endpointLabel: growth (%)
Give just the number in %; leave the unit off.

Query string: Query the reported growth for NCI-H460 lung; item: CC(C)CCN(CCCNc1c2c(nc3cc(Cl)ccc13)CCCC2)CCC(C)C
Result string: 55.7

Query string: Look up growth with NCI-H460 lung for this molecule: COc1ccc(-c2nnc(N3CCN(C(=O)CN4CCN(c5ccc(Cl)cc5)CC4)CC3)nc2-c2ccc(OC)cc2)cc1
Result string: 46.8

Query string: What reported growth corresponds to Nc1cc2c(cc1Cl)-c1ccc(Cl)cc1C2=O on NCI-H460 lung?
Result string: 96.6

Query string: For the record O=C(NC1CCCC1)c1ccc(N2CCC(NCc3cccc(C(F)(F)F)c3)CC2)cc1 , what value of growth is listed for NCI-H460 lung?
Result string: 99.5

Query string: Param readout = growth; param system = NCI-H460 lung; param query = Nc1c(CNCc2nnn(Cc3ccccc3)c2N)nnn1Cc1ccccc1 ; response: value
Result string: 103

Query string: Lab note: need growth for COc1ccc(C2C=C(c3ccc(Cl)cc3)N=C3SC=CN32)c(Br)c1 (stereo not given) on NCI-H460 lung, anyone have it?
Result string: 76.7

Query string: # get_value(readout= growth, system= NCI-H460 lung) for Cc1nc2ccc(-n3c(-c4ccc(Cl)cc4)nc4ccccc4c3=O)cc2n1Cc1ccccc1
Result string: 102

Query string: What measured growth is associated with COc1ccc(-c2nc(-c3ccccc3)c(-c3ccccc3)[nH]2)cc1OC1CCCC1 on NCI-H460 lung?
Result string: 61.4

Query string: Which measured growth belongs to C=CCc1cc(Nc2c3ccc(Cl)cc3nc3ccc(OC)cc23)cc(CN(CC)CC)c1O , tested on NCI-H460 lung?
Result string: 4.5

Query string: Lookup: growth / NCI-H460 lung / O=CNc1c(Cl)cc2c(c1Cl)Cc1cc([N+](=O)[O-])ccc1-2
Result string: 31.4

Query string: Form field: growth recorded for Cc1ccc(C(=O)O)c(N)c1C with NCI-H460 lung (enter value)
Result string: 108

Query string: Form field: growth recorded for COc1cc(C2c3cc4c(cc3C(O)C(CO)C2CO)OCO4)cc(OC)c1OC (stereo not given) with NCI-H460 lung (enter value)
Result string: 4.74

Query string: Request: growth, test system NCI-H460 lung, entry Cn1c([N+](=O)[O-])cnc1/C=C1\Oc2ccc(Br)cc2C1=O
Result string: -35

Query string: Lab request: please report growth under test system NCI-H460 lung for CCN(Cc1ccccc1)C1CCN(Cc2cc(Br)ccc2O)CC1
Result string: 49.6

Query string: Given the entry CCOC(=O)c1cc(-c2ccccc2)nc(N)n1 , what growth was observed with NCI-H460 lung?
Result string: 104

Query string: Which growth is reported with NCI-H460 lung for this entry: CC(C)(C)c1ccc(OCCCCCCN2CCNCC2)cc1 ?
Result string: 35.4

Query string: Give the reported growth for N=C(N)c1ccc(-c2ccc(-c3ccccc3)s2)s1 (system: NCI-H460 lung).
Result string: -70

Query string: What growth appears in the records for this molecule with NCI-H460 lung? COc1ccc(/C(=C/c2cc(OC)c(OC)cc2[N+](=O)[O-])C(=O)O)cc1
Result string: 110

Query string: What measured growth is associated with FC(F)(F)c1ccc(-c2ncc(-c3ccc(C(F)(F)F)cc3)c(NCc3cc(C(F)(F)F)cc(C(F)(F)F)c3)n2)cc1 on NCI-H460 lung?
Result string: 38.5

Query string: Any idea what growth came out for O=c1[nH]c(=O)n(C2C[C@@H](O)[C@@H](CO)O2)cc1F (stereo not given in full) on NCI-H460 lung?
Result string: 6.58
